tested on: HBV LM/MV; experiment: HBVDR assay, strain LM/MV; format: cell-based; conditions: HBV strain LM/MV, assay type HBVDR; read-out: EC50
ASSAY METRIC: EC50 (nM)
Write the number in nM without appending the unit.

Which EC50 is reported for this molecule? CC(C)(C)C(=O)OCOP(=O)(COCCn1cnc2c(N)ncnc21)OCOC(=O)C(C)(C)C
1300

====

tested on: HBV L180M; assay: HBVDR assay, strain L180M; format: cell-based; settings: Hepatitis B virus
ASSAY METRIC: EC50
Could you give the number and then its unit, please?

Which EC50 is reported for this compound? Nc1ccn([C@@H]2CS[C@H](CO)O2)c(=O)n1 [Lamivudine]
5.2 µM

====

tested on: HBV N236T; assay: HBVDR assay, strain N236T; assay type: cell-based; conditions: Hepatitis B virus
ASSAY METRIC: pEC50
pEC50 (log units): -log10 of the concentration in mol/L.

Which pEC50 is reported for this molecule? Nc1ccn([C@@H]2CS[C@H](CO)O2)c(=O)n1 [Lamivudine]
6.70

====

Assay: Neutral red dye uptake toxicity in 2.2.15 cells
Type: cell-based, human
Details: human, neutral red uptake (A510) 24 hours after last of 9 daily treatments, positive assay control
Procedure: The ability of sLDLR to inhibit pathogenic viruses was tested by the NIAID Antimicrobial Acquisition and Coordinating Facility (AACF). […] HBV virion DNA in the culture medium was assessed 24 hours after the last treatment by quantitative blot hybridization. Uptake of neutral red dye (absorbance of internalized dye at […] [A510]) wa used to determine the relative level of toxicity 24 hours following the last treatment (Korba & Gerin, Antivir. Res. 19:55-70, 1992). […]
ASSAY METRIC: CC50

Which CC50 is reported for this compound? Nc1ccn([C@@H]2CS[C@H](CO)O2)c(=O)n1
2310 µM

====

test system: HBV WT; test: HBVDR assay, strain WT; format: cell-based; settings: Hepatitis B virus, assay type HBVDR
ASSAY METRIC: EC50
Could you give the number and then its unit, please?

Which EC50 is reported for this molecule? Nc1ccn([C@@H]2CS[C@H](CO)O2)c(=O)n1 [Lamivudine]
200 nM

====

test system: HBV WT; assay: HBVDR assay, strain WT; type: cell-based; settings: assay type HBVDR
ASSAY METRIC: pEC50
pEC50 (log units): -log10 of the concentration in mol/L.

Which pEC50 is reported for this molecule? CC(C)(C)C(=O)OCOP(=O)(COCCn1cnc2c(N)ncnc21)OCOC(=O)C(C)(C)C [ADV, Adefovir Dipovoxil]
5.82
